Target: human IL-23R (Homo sapiens, UniProt Q5VWK5)
Construct: UniProtKB—Q5VWK5, amino acids 22-629; secretion signal of the plasmid (Promega N1371); expressed in transfected cells
Sequence (Q5VWK5 22-629): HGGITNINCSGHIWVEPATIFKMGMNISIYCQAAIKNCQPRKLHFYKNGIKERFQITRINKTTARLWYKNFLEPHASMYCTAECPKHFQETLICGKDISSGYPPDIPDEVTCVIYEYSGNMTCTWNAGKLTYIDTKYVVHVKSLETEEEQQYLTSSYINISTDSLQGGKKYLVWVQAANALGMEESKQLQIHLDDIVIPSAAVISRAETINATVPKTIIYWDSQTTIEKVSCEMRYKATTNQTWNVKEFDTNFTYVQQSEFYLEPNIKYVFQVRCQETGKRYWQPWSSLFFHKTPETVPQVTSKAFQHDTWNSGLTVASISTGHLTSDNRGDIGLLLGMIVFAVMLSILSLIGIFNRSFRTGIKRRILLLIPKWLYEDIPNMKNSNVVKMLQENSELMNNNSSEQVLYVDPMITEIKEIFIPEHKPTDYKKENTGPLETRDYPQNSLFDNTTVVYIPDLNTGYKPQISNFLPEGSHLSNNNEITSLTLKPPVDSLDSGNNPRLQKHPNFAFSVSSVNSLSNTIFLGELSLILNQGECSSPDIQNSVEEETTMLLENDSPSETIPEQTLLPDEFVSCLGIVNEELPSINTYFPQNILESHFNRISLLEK
Assay: Binding assay (NanoBRET displacement of fluorophore-labelled reference compound) for estimating binding affinity to human IL-23R
Details: Table 3-1; read-out: Ki hIL-23R
Method: Binding Assay for Estimating Binding Affinity of Compounds to Human IL-23R The compound binding affinity for IL-23R was estimated by the ability of compounds to displace a fluorophore-labelled reference compound from the human IL-23R. […] The plate was sealed with light impermeable plate seals, and incubated on a orbital shaker 400 rpm for 2 hours at room temperature. […] The BRET ratio was calculated as the fluorescence from the TAMRA/nanoluc bioluminescence. […]
*1 amine or outer side, *2 acyl side, *3 side chain or, on linkers, in order; H or OH if unused. Where a SMILES comes first, the peptide text is derived from it. Bridges are numbered along the chain shown (N, C = ends). [ ]: non-standard residue; d: D form. 2Nal = N[C@@H](Cc1ccc2ccccc2c1)C(=O)O; AEF = NCCOc1ccc(C[C@H](N)C(=O)O)cc1; X1 = O=C(Cc1ccc(CN[*:1])cc1)[*:2]; αMeL = CC(C)C[C@](C)(N)C(=O)O; CH2COCH2 = O=C(C[*:1])C[*:2]
Observation type: Ki (nM)
Write down the numeric answer in nM and omit the unit.

Provide value of Ki for this record tested with human IL-23R (Homo sapiens, UniProt Q5VWK5): CC(C)[C@]1(C)NC(=O)[C@H](Cc2ccc3ccccc3c2)NC(=O)[C@H](Cc2ccc(OCCN)cc2)NC(=O)[C@@H]2CCNC(=O)CC[C@H](NC(=O)[C@H](CO)NC(=O)Cc3ccc(cc3)CNC(=O)CC[C@@H](C(=O)N[C@@H](CCN)C(N)=O)NC1=O)C(=O)N[C@@H](Cc1c[nH]c3ccccc13)C(=O)N[C@@H](CCC(N)=O)C(=O)N2
0.17

Here is the next molecule: CC(C)C[C@]1(C)NC(=O)[C@H](Cc2ccc3ccccc3c2)NC(=O)[C@H](Cc2ccc(OCCN)cc2)NC(=O)[C@@H]2CSCC(=O)CSC[C@H](NC(=O)[C@H](CO)NC(=O)Cc3ccc(cc3)CNC(=O)CC[C@@H](C(=O)N[C@H](CCC(N)=O)C(N)=O)NC1=O)C(=O)N[C@@H](Cc1c[nH]c3ccccc13)C(=O)N[C@@H](CCC(N)=O)C(=O)N2 [Compound 115] ([X1]SCWQC[AEF][2Nal][αMeL]E[dQ]-NH2; linker 3-6 via CH2COCH2; lactam N-10)
0.182
